B1: LOXL2 (parent)
chain: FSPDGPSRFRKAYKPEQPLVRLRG

Variants of: B1
Protocol: protein stability index of a GFP-peptide fusion (GPS, HEK-293T) (PSI 1-6); higher = more stable;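 further: lentivirally expressed fusions sorted by FACS into six bins by GFP to DsRed ratio, PSI derived from sequencing read proportions per bin multiplied by bin number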
Conditions Used: c terminus: a fixed tail appended
Listed below: protein stability index values for each entry.
Answer with a bare number; do not write a unit.

Past entries and their recorded results:
* FSHDGPSRFRKAYKPEQPLVRLRG [P3H] | 1.9
* FSPDGPSRFRSAYKPEQPLVRLRG [K11S] | 1.62

// switching to the query variant
Report measured protein stability index; entry is FSPDGPSRFRKKYKPEQPLVRLRG [A12K]
2
